tested on: DENV-R2A (Rluc-expressing DENV, serotype 2 strain 16681); assay: microbe, parasite or virus in culture; assay type: cell-based, Dengue virus; settings: Dengue virus, Huh7.5, 48 h, read-out: DENV-R2A replication (fold DMSO), Table 1, NPP3C analogues, 50 μM, Huh7.5, 2 days postinfection
Result type: activity at 50 µM (%)
Hi! Could you send only the number? It should be in %, unit omitted.

Compound	Experimental target	activity at 50 µM / %
CC(Nc1ccccc1)c1cccnc1 (stereo not drawn)	DENV-R2A (Rluc-expressing DENV, serotype 2 strain 16681)	147
Nc1cccc(NC(=O)c2cccnc2)c1	DENV-R2A (Rluc-expressing DENV, serotype 2 strain 16681)	75
O=C(Nc1ccccc1Cl)c1cccnc1	DENV-R2A (Rluc-expressing DENV, serotype 2 strain 16681)	99
O=C(Nc1ccc(C(F)(F)F)cc1)c1cccnc1	DENV-R2A (Rluc-expressing DENV, serotype 2 strain 16681)	98
O=C(Nc1cccc(B(O)O)c1)c1cccnc1	DENV-R2A (Rluc-expressing DENV, serotype 2 strain 16681)	107
O=C(Nc1ccccc1)N1CCNCC1	DENV-R2A (Rluc-expressing DENV, serotype 2 strain 16681)	82

Request - read-out activity at 50 µM | tested on DENV-R2A (Rluc-expressing DENV, serotype 2 strain 16681) | compound "c1ccc(NCc2cccnc2)cc1" 138

Request - read-out activity at 50 µM | tested on DENV-R2A (Rluc-expressing DENV, serotype 2 strain 16681) | compound "O=C(NNc1ccccc1)c1ccncc1" 37

Request - read-out activity at 50 µM | tested on DENV-R2A (Rluc-expressing DENV, serotype 2 strain 16681) | compound O=C(Nc1ccccc1)c1cccnc1 [NPP3C, N-phenylpyridine-3-carboxamide] 1

----------
test system: Huh7.5 cells; experiment: Cell viability, CellTiter-Glo luminescent assay; conditions: Table 2, 6A1HI analogues, 50 μM, Huh7.5, 2 days
Result type: Cell viability (Fold DMSO) (fold DMSO)
Hi! Could you send only the number? It should be in fold DMSO, unit omitted.

Worked cases, answers included:
CC(=O)c1ccc2c(c1)OCO2 0.93
CC(=O)c1ccc2cn(C)nc2c1 0.75
CC(=O)c1ccc2[nH]c(=O)[nH]c2c1 0.98
CC(=O)c1cccc2cn[nH]c12 1.03
CC(=O)c1ccc2cn[nH]c2c1 0.93

Request - read-out Cell viability (Fold DMSO) | tested on Huh7.5 cells | compound "NC(=O)c1ccc2cn[nH]c2c1" 0.99

----------
test system: DENV-R2A (Rluc-expressing DENV, serotype 2 strain 16681); test: microbe, parasite or virus in culture; format: cell-based, Dengue virus; details: Dengue virus, Huh7.5, 48 h, read-out: DENV-R2A replication (fold DMSO) Mean, deconvolution screen, singletons, 50 µM, Huh7.5, 2 days postinfection
Consider the following molecules and their measured activity at 50 µM readings.
Record the result as number plus unit.

Worked cases, answers included:
Molecule	Experimental target	Recorded measurement
Cc1cc(O)cc(O)n1 [PS-3153, Cc1cc(O)cc(O)n1]	DENV-R2A (Rluc-expressing DENV, serotype 2 strain 16681)	100%
CNC(=O)c1cn(C)c2ccccc12 [Compound 9T-1495, CNC(=O)c1cn(C)c2ccccc12]	DENV-R2A (Rluc-expressing DENV, serotype 2 strain 16681)	103%
Cc1cc(C)n2ccnc2c1 [Compound 9X-0854, Cc1cc(C)n2ccnc2c1]	DENV-R2A (Rluc-expressing DENV, serotype 2 strain 16681)	94%
CSc1ccccc1N1CCNCC1 [SS-4074, CSc1ccccc1N2CCNCC2]	DENV-R2A (Rluc-expressing DENV, serotype 2 strain 16681)	79%
O=C1CCCc2cc(O)ccc21 [MS-2425, Oc1ccc2C(=O)CCCc2c1]	DENV-R2A (Rluc-expressing DENV, serotype 2 strain 16681)	98%

Would you mind telling me what activity at 50 µM value was observed for CC(=O)c1ccccc1-n1ccnc1 [Compound 1B-028, CC(=O)c1ccccc1n2ccnc2] ? 59%

Would you mind telling me what activity at 50 µM value was observed for OCc1cc2cc(Br)ccc2[nH]1 [GA-0936, OCc1cc2cc(Br)ccc2[nH]1] ? 13%

Would you mind telling me what activity at 50 µM value was observed for OCc1cccc(CO)n1 [PS-5751, OCc1cccc(CO)n1] ? 100%

Would you mind telling me what activity at 50 µM value was observed for Cc1cc2c(cc1C)NC(C)CC(=O)N2 (stereo not drawn) [Compound 12W-0869, CC1CC(=O)Nc2cc(C)c(C)cc2N1] ? 85%
